- test-method-notes: inhibition of PEG-3 promoter activity – cell-based, HeLa, luciferase luminescence, primary screen (AID 588405)
- stated-conditions: HeLa PEG-Prom luciferase reporter, overnight, at 20 µM, hits give high values
In all, about 360,000 compounds went through this assay and about 6,200 (1.7%) were called active. For the sample, actives were picked, then their nearest neighbours and some compounds at random.
endpoint-label: inhibition (%)
The reply should contain only the number, in %.

Field: example entries. Status: answers known.
CCCc1nc(NCc2ccc3c(c2)OCO3)c2nnn(Cc3ccccc3Cl)c2n1 ... 1.34
Cc1nc(Nc2ccccc2F)c2nnn(Cc3ccccc3Cl)c2n1 ... 8.32
Cc1nc(Nc2ccc3c(c2)OCCO3)c2nnn(Cc3ccccc3Cl)c2n1 ... 54.7
CC(C)[C@H](NC(=O)N1CC(=O)Nc2ccccc21)C(=O)N[C@@H](Cc1c[nH]c2ccccc12)C(=O)O ... 14.7
CN(CCO)c1ccc(/C=N/Nc2nncc3ccccc23)cc1 ... 63.9
CCCNC(=O)C1(C)CCN(Cc2csc(-c3ccc(Cl)cc3)n2)C1 (centres undefined) ... -23.7
COCOc1cccc(CN2CCC(C)(Oc3ccc(SC)cc3)C2)c1 (centres undefined) ... -1.46
Cc1ccc(-c2nc3ccccc3[nH]2)cc1NC(=O)c1sc2ccccc2c1Cl ... 50.7

Kindly review the next molecule as well.
What value of measured inhibition is listed for CC(=O)c1cccc(-c2cnc3c(NC=O)cc(-c4ccccc4Oc4ccccc4)cn23)c1 ? 0.73
